This section presents compounds with their documented CI range for the concentration pairings values.
Test system: HCT116 colorectal carcinoma cells
Test: Synergy of MBZ with chemotherapeutic agents (Chou-Talalay CI, Cell Titer Glo)
Type: cell-based
Settings: in combination with MBZ, 72 hour incubation

Would you please look over these solved cases?
1. COc1cc([C@@H]2c3cc4c(cc3[C@@H](O[C@@H]3O[C@@H]5CO[C@@H](C)O[C@H]5[C@H](O)[C@H]3O)[C@H]3COC(=O)[C@H]23)OCO4)cc(OC)c1O [Etoposide] : 0.607-0.890
2. CCc1c2c(nc3ccc(OC(=O)N4CCC(N5CCCCC5)CC4)cc13)-c1cc3c(c(=O)n1C2)COC(=O)[C@]3(O)CC [Irinotecan] : 0.545-0.793
3. O=c1[nH]cc(F)c(=O)[nH]1 [5-FU, 5-Fluorouracil] : 0.285-0.860

From here, focus on the item given below.
Task: Would you please give the reported CI range for the concentration pairings of O=C1[O][Pt]2([NH][C@@H]3CCCC[C@H]3[NH]2)[O]C1=O [Oxaliplatin] with HCT116 colorectal carcinoma cells?
Result: 0.493-0.728

----------
Test system: NCI-H295R adrenal cortical carcinoma cell line
Experiment: MBZ cell viability IC50 (CellTiter Glo)
Type: cell-based
Conditions: Homo sapiens, 72 hours
readout name: pIC50
Units for pIC50: none; it is -log10 of a concentration expressed in mol/L.

Task: Using known records, supply pIC50 for COC(=O)Nc1nc2ccc(C(=O)c3ccccc3)cc2[nH]1 [MBZ]
Result: 7.00

----------
System: HCT-116 cells
Experiment: MBZ vs HA-PLGA-MBZ cell viability IC50 (Cell Titer Glo)
Type: cell-based
Conditions: Homo sapiens, 72 hour incubation
readout name: pIC50
Units for pIC50: none; it is -log10 of a concentration expressed in mol/L.

Task: Using known records, supply pIC50 for COC(=O)Nc1nc2ccc(C(=O)c3ccccc3)cc2[nH]1
Result: 6.49

----------
Tested on: SKOV-3 cells
Test: MBZ vs HA-PLGA-MBZ cell viability IC50 (Cell Titer Glo)
Format: cell-based
Settings: Homo sapiens, SK-OV-3, 72 hour incubation
readout name: pIC50
Units for pIC50: none; it is -log10 of a concentration expressed in mol/L.

Task: Using known records, supply pIC50 for COC(=O)Nc1nc2ccc(C(=O)c3ccccc3)cc2[nH]1
Result: 6.17

----------
Test system: SNU-16 gastric carcinoma cell line
Assay: MBZ cell viability IC50 (CellTiter Glo)
Assay type: cell-based
Details: Homo sapiens, 72 hours
readout name: pIC50
Units for pIC50: none; it is -log10 of a concentration expressed in mol/L.

Task: Using known records, supply pIC50 for COC(=O)Nc1nc2ccc(C(=O)c3ccccc3)cc2[nH]1
Result: 6.38

----------
Tested on: rare cancer tumor cell lines including neuroblastoma, rhabdomyosarcoma and Ewing sarcoma
Experiment: MBZ cell viability IC50 across rare cancer tumor cell lines
Assay type: cell-based
Details: several rare cancer tumor cell lines; 72 hours; read-out: IC50s (range over cell lines)
pIC50: −log10 of the molar value.
readout name: pIC50

Task: Using known records, supply pIC50 for COC(=O)Nc1nc2ccc(C(=O)c3ccccc3)cc2[nH]1
Result: 6.00 to 7.30

----------
Test system: COV-362 cells
Assay: MBZ vs HA-PLGA-MBZ cell viability IC50 (Cell Titer Glo)
Type: cell-based
Details: COV362, 72 hour incubation
readout name: pIC50
Units for pIC50: none; it is -log10 of a concentration expressed in mol/L.

Task: Using known records, supply pIC50 for COC(=O)Nc1nc2ccc(C(=O)c3ccccc3)cc2[nH]1 [MBZ]
Result: 6.48

----------
System: TC-32 Ewing's sarcoma cell line
Test: MBZ cell viability IC50 (CellTiter Glo)
Format: cell-based
Conditions: Homo sapiens, 72 hours
readout name: IC50 (nM)
Response body: numeric value in nM, unit text excluded.

Task: Would you please give the reported IC50 of COC(=O)Nc1nc2ccc(C(=O)c3ccccc3)cc2[nH]1 [MBZ] with TC-32 Ewing's sarcoma cell line?
Result: 410

----------
System: CHP-212 neuroblastoma cells
Assay: Synergy of MBZ or HA-PLGA-MBZ with chemotherapeutic agents (Chou-Talalay CI, Cell Titer Glo)
Type: cell-based
Conditions: in combination with MBZ; CHP-212; 72 hour incubation
readout name: CI range for the concentration pairings

Would you please look over these solved cases?
1. O=P1(N(CCCl)CCCl)NCCCO1 (centres unmarked) [Cyclophosphamide] : 0.569-0.860
2. COc1cc([C@@H]2c3cc4c(cc3[C@@H](O[C@@H]3O[C@@H]5CO[C@@H](C)O[C@H]5[C@H](O)[C@H]3O)[C@H]3COC(=O)[C@H]23)OCO4)cc(OC)c1O [Etoposide] : 0.647-0.891
3. N.N.[Cl][Pt][Cl] [Cisplatin] : 0.653-0.896
4. COc1cccc2c1C(=O)c1c(O)c3c(c(O)c1C2=O)C[C@@](O)(C(=O)CO)C[C@@H]3O[C@H]1C[C@H](N)[C@H](O)[C@H](C)O1 : 0.646-0.883

From here, focus on the item given below.
Task: Using known records, supply CI range for the concentration pairings for N.N.O=C([O-])C1(C(=O)[O-])CCC1.[Pt+2]
Result: 0.587-0.876

----------
Test system: NCI-H295R cells
Assay: MBZ vs HA-PLGA-MBZ cell viability IC50 (Cell Titer Glo)
Format: cell-based
Conditions: Homo sapiens, 72 hour incubation
Text: An IC50 for each treatment was established using the PRISM software.
readout name: IC50 (nM)
Response body: numeric value in nM, unit text excluded.

Task: Would you please give the reported IC50 of COC(=O)Nc1nc2ccc(C(=O)c3ccccc3)cc2[nH]1 [MBZ] with NCI-H295R cells?
Result: 330
